Values were extracted from patent US8722661B2.

// values below are IC50; system is Tankyrase 1 (TNKS1) (Homo sapiens)
Sequence (O95271 1088-1327): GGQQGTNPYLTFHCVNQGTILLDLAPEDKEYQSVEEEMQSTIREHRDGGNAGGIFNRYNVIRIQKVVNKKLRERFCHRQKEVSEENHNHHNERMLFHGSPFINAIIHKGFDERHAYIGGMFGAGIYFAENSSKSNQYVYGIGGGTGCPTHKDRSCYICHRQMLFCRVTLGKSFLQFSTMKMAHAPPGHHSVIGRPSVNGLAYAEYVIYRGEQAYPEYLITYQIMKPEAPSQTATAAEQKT
REPORTED_PROPERTY: IC50

1) Cn1ccc2c(=O)[nH]c(N3CCN(c4cc(C(F)(F)F)ccn4)CC3)nc21	292 nM
2) Cn1ccc2c(=O)[nH]c(N3CCN(c4ccc(F)cc4S(C)(=O)=O)CC3)nc21	30 nM
3) Cn1ccc2c(=O)[nH]c(N3CCN(c4ccc(Cl)c(Cl)c4)CC3)nc21	204 nM
4) O=c1[nH]c(N2CCN(c3ccccc3F)CC2)nc2c1ccn2CO	33 nM
5) Cn1ccc2c(=O)[nH]c(N3CCN(c4ccc(S(C)(=O)=O)cc4F)CC3)nc21	35 nM

* * *

pIC50: −log10 of the molar value.
// values below are pIC50; system is PARP1 (His6-PARP1, full length) (Homo sapiens, UniProt P09874)
Sequence (P09874 whole entry): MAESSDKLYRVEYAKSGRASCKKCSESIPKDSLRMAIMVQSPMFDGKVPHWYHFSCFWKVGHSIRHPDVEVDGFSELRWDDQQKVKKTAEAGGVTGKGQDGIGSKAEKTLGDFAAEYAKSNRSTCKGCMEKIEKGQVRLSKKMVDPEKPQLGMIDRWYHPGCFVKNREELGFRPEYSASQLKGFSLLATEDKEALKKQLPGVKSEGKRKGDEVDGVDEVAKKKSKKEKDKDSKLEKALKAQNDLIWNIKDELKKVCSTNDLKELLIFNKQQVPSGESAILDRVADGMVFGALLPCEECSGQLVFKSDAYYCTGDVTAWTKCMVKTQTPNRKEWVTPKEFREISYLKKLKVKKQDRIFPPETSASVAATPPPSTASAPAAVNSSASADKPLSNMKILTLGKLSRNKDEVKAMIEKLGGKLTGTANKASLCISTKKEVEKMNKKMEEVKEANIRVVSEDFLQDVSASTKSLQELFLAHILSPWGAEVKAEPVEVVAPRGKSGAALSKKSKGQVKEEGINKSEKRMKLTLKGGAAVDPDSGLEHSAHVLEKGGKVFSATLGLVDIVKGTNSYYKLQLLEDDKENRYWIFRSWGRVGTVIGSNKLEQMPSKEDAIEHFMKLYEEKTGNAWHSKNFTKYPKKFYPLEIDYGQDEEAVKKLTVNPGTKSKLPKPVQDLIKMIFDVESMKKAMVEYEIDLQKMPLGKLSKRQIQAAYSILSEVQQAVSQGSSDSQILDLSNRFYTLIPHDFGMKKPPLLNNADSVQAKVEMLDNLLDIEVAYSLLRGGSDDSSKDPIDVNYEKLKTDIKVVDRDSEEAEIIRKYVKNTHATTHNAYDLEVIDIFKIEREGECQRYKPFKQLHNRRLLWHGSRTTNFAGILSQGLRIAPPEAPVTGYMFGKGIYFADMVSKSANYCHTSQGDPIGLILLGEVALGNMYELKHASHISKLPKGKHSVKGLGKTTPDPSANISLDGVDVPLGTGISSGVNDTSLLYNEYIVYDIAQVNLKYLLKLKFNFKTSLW
REPORTED_PROPERTY: pIC50

1) Cn1ccc2c(=O)[nH]c(N3CCN(c4ccccc4Cl)CC3)nc21 [Example 30]	5.85
2) Cn1ccc2c(=O)[nH]c(N3CCN(c4nccnc4C#N)CC3)nc21 [Example 10]	6.22
3) Cn1ccc2c(=O)[nH]c(N3CCN(c4ccncc4)CC3)nc21 [Example 1]	6.84
4) Cn1ccc2c(=O)[nH]c(-c3ccc(C#N)cc3)nc21 [Example 43]	5.93
5) Cn1ccc2c(=O)[nH]c(N3CCN(c4ncccc4C(F)(F)F)CC3)nc21 [Example 6]	5.66

* * *

- SYSTEM_UNDER_TEST: tankyrase 2 (His6-TNKS2) (Homo sapiens, UniProt Q9H2K2)
- Sequence (Q9H2K2 934-1166): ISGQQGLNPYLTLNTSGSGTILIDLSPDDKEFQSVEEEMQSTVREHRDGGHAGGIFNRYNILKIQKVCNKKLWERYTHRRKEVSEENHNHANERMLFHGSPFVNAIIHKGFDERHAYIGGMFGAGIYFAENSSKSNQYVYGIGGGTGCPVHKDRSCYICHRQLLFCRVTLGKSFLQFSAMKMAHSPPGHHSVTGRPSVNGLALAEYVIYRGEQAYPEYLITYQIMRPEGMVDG
pIC50: −log10 of the molar value.
Reported pIC50 values follow for various molecules
REPORTED_PROPERTY: pIC50

1. Cn1ccc2c(=O)[nH]c(-c3cccnc3)nc21 [Example 41]	6.25
2. Cn1ccc2c(=O)[nH]c(-c3ccc(C#N)cc3)nc21 [Example 43]	6.84
3. Cn1ccc2c(=O)[nH]c(N3CCN(c4ccccc4C(F)(F)F)CC3)nc21 [Example 23]	7.51
4. CCn1ccc2c(=O)[nH]c(-c3ccc(C(F)(F)F)cc3)nc21 [Example 50]	6.79
5. O=c1[nH]c(-c2ccc(C(F)(F)F)cc2)nc2[nH]ccc12 [Example 37]	6.66

* * *

pIC50: −log10 of the molar value.
// values below are pIC50; system is UniProtKB O95271
REPORTED_PROPERTY: pIC50

1) Cn1ccc2c(=O)[nH]c(N3CCN(c4ccccc4F)CC3)cc21	7.29
2) COc1ccc(-c2nc3c(ccn3C)c(=O)[nH]2)cc1	7.27
3) O=c1[nH]c(N2CCN(c3c(F)cccc3F)CC2)nc2c1ccn2CC(O)CO (centres unmarked)	7.47
4) Cn1ccc2c(=O)[nH]c(-c3ccc(C(F)(F)F)nc3)nc21	7.06
5) O=c1[nH]c(-c2ccc(C(F)(F)F)cc2)nc2c1ccn2CCC(O)CO (centres unmarked)	6.62

* * *

// values below are IC50; system is tankyrase 2 (His6-TNKS2) (Homo sapiens)
REPORTED_PROPERTY: IC50

1. Cn1ccc2c(=O)[nH]c(N3CCN(c4ccc(C#N)cc4)CC3)nc21	74 nM
2. O=c1[nH]c(-c2ccc(C(F)(F)F)cc2)nc2c1ccn2CC(O)CO (centres unmarked)	237 nM
3. Cn1ccc2c(=O)[nH]c(N3CCN(c4ncccn4)CC3)nc21	143 nM
4. C=CCn1ccc2c(=O)[nH]c(-c3ccc(C(F)(F)F)cc3)nc21	730 nM
5. Cn1ccc2c(=O)[nH]c(N3CCN(c4cc(Cl)cc(Cl)c4)CC3)nc21	405 nM
6. Cn1ccc2c(=O)[nH]c(N3CCN(c4ncccc4C#N)CC3)nc21	63 nM
7. CCOc1ccc(-c2nc3c(ccn3C)c(=O)[nH]2)cn1	109 nM
8. O=c1[nH]c(-c2ccc(C(F)(F)F)cc2)nc2c1ccn2C1CC1	619 nM
9. Cn1ccc2c(=O)[nH]c(N3CCN(S(C)(=O)=O)CC3)nc21	126 nM
10. CCn1ccc2c(=O)[nH]c(-c3ccc(C(F)(F)F)cc3)cc21	132 nM
11. Cn1ccc2c(=O)[nH]c(N3CCN(c4ccccc4)CC3)nc21	45 nM
12. Cn1ccc2c(=O)[nH]c(N3CCN(c4ccc(S(C)(=O)=O)cc4F)CC3)nc21	47 nM
13. Cn1ccc2c(=O)[nH]c(N3CC(C)(c4ccc(Br)cc4)C3)nc21	192 nM
14. Cn1ccc2c(=O)[nH]c(-c3ccc(C(F)(F)F)cc3)nc21	45 nM
